Values were extracted from patent US20260132127A1.

target: human TRH-DE (Homo sapiens)
Sequence (Q9UKU6 1-1069): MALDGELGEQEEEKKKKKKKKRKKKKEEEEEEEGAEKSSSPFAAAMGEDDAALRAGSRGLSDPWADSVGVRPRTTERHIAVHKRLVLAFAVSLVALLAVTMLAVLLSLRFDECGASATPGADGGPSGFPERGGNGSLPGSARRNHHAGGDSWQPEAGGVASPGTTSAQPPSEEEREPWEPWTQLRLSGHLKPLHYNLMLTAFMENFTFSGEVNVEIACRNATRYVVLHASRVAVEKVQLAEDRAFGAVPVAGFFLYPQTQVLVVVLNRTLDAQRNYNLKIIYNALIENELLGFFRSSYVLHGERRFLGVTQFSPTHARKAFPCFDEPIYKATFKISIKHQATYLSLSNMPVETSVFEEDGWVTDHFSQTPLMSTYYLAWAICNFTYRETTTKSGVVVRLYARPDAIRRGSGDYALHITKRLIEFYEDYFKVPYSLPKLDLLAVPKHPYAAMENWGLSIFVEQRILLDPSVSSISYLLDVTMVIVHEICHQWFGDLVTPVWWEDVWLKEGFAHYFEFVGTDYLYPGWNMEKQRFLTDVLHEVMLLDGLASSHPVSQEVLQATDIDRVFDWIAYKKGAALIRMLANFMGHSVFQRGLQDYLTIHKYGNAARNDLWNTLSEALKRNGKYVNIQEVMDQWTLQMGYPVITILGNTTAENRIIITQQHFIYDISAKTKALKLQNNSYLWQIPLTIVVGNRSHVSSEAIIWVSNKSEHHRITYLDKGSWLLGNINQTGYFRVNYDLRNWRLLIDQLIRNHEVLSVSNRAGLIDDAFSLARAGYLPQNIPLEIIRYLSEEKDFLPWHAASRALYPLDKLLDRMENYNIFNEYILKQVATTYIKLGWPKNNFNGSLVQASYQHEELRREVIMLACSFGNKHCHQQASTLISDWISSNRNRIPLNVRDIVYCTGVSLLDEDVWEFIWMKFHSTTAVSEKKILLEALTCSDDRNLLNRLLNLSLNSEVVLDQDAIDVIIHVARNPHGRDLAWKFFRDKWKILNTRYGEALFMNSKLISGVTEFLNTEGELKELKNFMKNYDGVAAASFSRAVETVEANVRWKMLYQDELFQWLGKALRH
measured-endpoint: IC50 (µM)

>  <molecule>
CC1(O)c2ccc(F)cc2C(=O)N1C1CC2(C1)CN(S(=O)(=O)c1ccccc1F)C2 (racemic) [Example 277]

>  <result-number>
0.102

$$$$
>  <molecule>
C[C@@H]1COc2cc(N3CCCCC3)ncc2C(=O)N1C1CC2(C1)CN(S(=O)(=O)c1ccccc1F)C2 [Example 149]

>  <result-number>
0.001

$$$$
>  <molecule>
CC1COc2ncccc2C(=O)N1C1CC2(C1)CN(S(=O)(=O)c1ccccc1C(F)(F)F)C2 (racemic) [Example 78]

>  <result-number>
2.33

$$$$
>  <molecule>
CCCN(C(=O)c1cccnc1OC)C1CC2(C1)CN(S(=O)(=O)c1cccc(C)c1F)C2 [Example 420]

>  <result-number>
0.701

$$$$
